For each record, write down the corresponding shrunken log2 fold change.
System: Escherichia coli TOP10;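 note: peptides expressed intracellularly from a pBAD plasmid library in pooled LB shake-flask culture, induced with 0.3% L-arabinose, DNA abundance read by NGS, three biological replicates, DESeq2 with apeglm shrinkage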
measurementDescription: shrunken log2 fold change of peptide-encoding DNA abundance (4.5 h post-induction vs induction); higher = less antimicrobial activity (less host growth inhibition)
runParameters: time post-induction: 4.5 h; library: site-saturation at positions 5, 18, 19, 20
// response body must contain only the number

Short answer for RRIRYRPPRLPRPRPRPGWHPRP : shrunken log2 fold change was 0.00731

Short answer for RRIRFRPPRLPRPRPRPHAKPRP : shrunken log2 fold change was 0.229

Short answer for RRIRFRPPRLPRPRPRPSYPPRP : shrunken log2 fold change was -0.161

Short answer for RRIRLRPPRLPRPRPRPDPHPRP : shrunken log2 fold change was -0.171

Short answer for RRIRPRPPRLPRPRPRPKYQPRP : shrunken log2 fold change was -0.411

Short answer for RRIRGRPPRLPRPRPRPWSYPRP : shrunken log2 fold change was -0.157

Short answer for RRIRMRPPRLPRPRPRPCSTPRP : shrunken log2 fold change was 0.477

Short answer for RRIRKRPPRLPRPRPRPSVVPRP : shrunken log2 fold change was 0.45
